These data points were gathered from ChEMBL document CHEMBL1145967.

Target chain: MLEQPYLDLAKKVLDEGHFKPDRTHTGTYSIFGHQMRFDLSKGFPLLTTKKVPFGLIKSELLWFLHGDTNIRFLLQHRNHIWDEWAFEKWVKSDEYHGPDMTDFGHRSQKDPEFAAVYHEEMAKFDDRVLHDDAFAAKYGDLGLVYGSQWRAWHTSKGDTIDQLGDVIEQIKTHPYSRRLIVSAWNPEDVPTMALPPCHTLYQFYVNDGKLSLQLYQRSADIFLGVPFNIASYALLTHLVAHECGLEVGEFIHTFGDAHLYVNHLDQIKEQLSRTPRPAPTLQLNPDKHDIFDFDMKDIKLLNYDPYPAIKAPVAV
pIC50: −log10 of the molar value.
observed property: pIC50

> print(dat)
                               smiles.entry  result
1  CCc1[nH]c(N)nc2nc(C)c(CCc3ccc(C(=O)N[C@@H](CCC(=O)O)C(=O)O)cc3)c1-2  < 4.00

====

assayed target: Thymidylate synthase (Escherichia coli)
Sequence (C3SWJ7 whole entry): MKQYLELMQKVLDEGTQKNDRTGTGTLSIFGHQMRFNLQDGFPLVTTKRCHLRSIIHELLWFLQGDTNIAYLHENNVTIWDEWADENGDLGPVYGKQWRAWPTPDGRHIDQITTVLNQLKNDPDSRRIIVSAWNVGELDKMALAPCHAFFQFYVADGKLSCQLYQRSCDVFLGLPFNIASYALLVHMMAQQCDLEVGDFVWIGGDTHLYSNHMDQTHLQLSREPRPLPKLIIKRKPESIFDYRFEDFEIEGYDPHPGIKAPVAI
protocol details: Compound was evaluated as inhibitor of Escherichia coli thymidylate synthase
observed property: IC50 (µM)

> print(dat)
                               smiles.entry  observed.property  number
1  CCc1nc(N)nc2[nH]cc(CCc3ccc(C(=O)N[C@@H](CCC(=O)O)C(=O)O)cc3)c12               IC50      80

====

Tested on: R1-CCRF-CEM
protocol details: Growth inhibition of MTX-resistant subline R1-CCRF-CEM Human Leukemia Cell was determined
Assay type: functional, cell-based
observed property: EC50 (nM)

> print(dat)
                                   molecule  result.modifier  number
1  CCc1nc(N)nc2[nH]cc(CCc3ccc(C(=O)N[C@@H](CCC(=O)O)C(=O)O)cc3)c12                =     695
2  CCc1[nH]c(N)nc2nc(C)c(CCc3ccc(C(=O)N[C@@H](CCC(=O)O)C(=O)O)cc3)c1-2                >   20000
3  CN(Cc1cnc2nc(N)nc(N)c2n1)c1ccc(C(=O)N[C@@H](CCC(=O)O)C(=O)O)cc1 [METHOTREXATE]                =     985
4  Cc1nc(N)nc2[nH]cc(CCc3ccc(C(=O)N[C@@H](CCC(=O)O)C(=O)O)cc3)c12                =     158
